// provenance: patent US20260242388A1

- Test system: NBD1
- assay.details: Aggregation analysis using differential static light scattering (DSLS), thermal stability of NBD1
- Type: binding, Human
- recorded.conditions: 100 μM compound; ΔTagg = Tagg minus average Tagg of DMSO control wells; NBD1 0.2 mg/ml
value.type: DSLS NBD1/3D Human Stability delta-T (° C.) @ 100 (μM)

Example results:
compound	observed.result
Cc1c(-c2cc(Oc3c(F)cc4[nH]ccc4c3F)ccc2F)nc2n1CCNC2c1cccc(CC(O)CO)c1F (stereo not shown)	B (4-8° C.)
CCOC(=O)CCc1cccc(C2c3nc(-c4cc(Oc5c(F)cc6[nH]ccc6c5S(C)(=O)=O)ccc4F)[nH]c3CCN2C)c1F (stereo not shown)	B (4-8° C.)
CN1CCc2[nH]c(-c3cc(Oc4c(F)cc5[nH]ccc5c4S(C)(=O)=O)ccc3F)nc2C1c1cccc(CCC(=O)O)c1F (stereo not shown)	A (T ≥ 8° C.)
CNC(=O)CCc1cccc(C2c3nc(-c4cc(Oc5c(F)cc6[nH]ccc6c5S(C)(=O)=O)ccc4F)[nH]c3CCN2CC(F)F)c1F (stereo not shown)	B (4-8° C.)
CCOC(=O)CCc1ccc(C2c3nc(-c4cc(Oc5c(F)cc6[nH]ccc6c5S(C)(=O)=O)ccc4F)[nH]c3CCN2C)s1 (stereo not shown)	B (4-8° C.)

The recorded DSLS NBD1/3D Human Stability delta-T (° C.) @ 100 (μM) for entry CN1CCc2[nH]c(-c3cc(Oc4c(F)cc5[nH]ccc5c4S(C)(=O)=O)ccc3F)nc2C1c1cccc(CC(O)CO)c1F (stereo not shown) equals A (T ≥ 8° C.)

DSLS NBD1/3D Human Stability delta-T (° C.) @ 100 (μM) reported for this compound CS(=O)(=O)c1c(Oc2ccc(F)c(-c3nc4c([nH]3)CCN(CC(F)F)C4c3cccc(CCC(=O)O)c3F)c2)c(F)cc2[nH]ccc12 (stereo not shown) : A (T ≥ 8° C.)

DSLS NBD1/3D Human Stability delta-T (° C.) @ 100 (μM) in this record for CN1CCc2nc(-c3cc(Oc4c(F)cc5[nH]ccc5c4F)ccc3F)[nH]c2[C@H]1c1cccc(CCC(=O)O)c1F (single isomer, unassigned) : B (4-8° C.)

// DSLS NBD1/3D Human Stability delta-T (° C.) @ 100 (μM) value for Cc1c(-c2cc(Oc3c(F)cc4[nH]ccc4c3S(C)(=O)=O)ccc2F)nc2n1CCNC2c1cccc(CC(C)C(=O)O)c1F (stereo not shown) : A (T ≥ 8° C.)

Notebook: O=C(O)Cc1cccc(C2OCCc3[nH]c(-c4cc(Oc5c(F)cc6[nH]ccc6c5F)ccc4F)nc32)c1 (stereo not shown) , DSLS NBD1/3D Human Stability delta-T (° C.) @ 100 (μM) read as B (4-8° C.)

Input O=C(O)CCc1cccc(C2c3nc(-c4cc(Oc5c(F)cc6[nH]ccc6c5F)ccc4F)[nH]c3CCN2CC(F)F)c1F (stereo not shown) . Output DSLS NBD1/3D Human Stability delta-T (° C.) @ 100 (μM): A (T ≥ 8° C.)

Record CC(Cc1cccc(C2c3nc(-c4cc(Oc5c(F)cc6[nH]ccc6c5F)ccc4F)[nH]c3CCN2C)c1F)C(=O)O (stereo not shown) , field DSLS NBD1/3D Human Stability delta-T (° C.) @ 100 (μM): A (T ≥ 8° C.)

====

- Tested on: NBD1
- assay.details: Aggregation analysis using differential static light scattering (DSLS), thermal stability of NBD1
- Format: binding, Human
- recorded.conditions: 100 μM compound; ΔTagg = Tagg minus average Tagg of DMSO control wells; NBD1 0.2 mg/ml
value.type: DSLS NBD1/3D Human Stability delta-T (° C.) @ 100 (μM)

compound	tested.on	observed.result
O=C(O)CCc1cccc([C@H]2NCCc3nc(-c4cc(Oc5c(F)cc6[nH]ccc6c5F)ccc4F)[nH]c32)c1F (single isomer, unassigned)	NBD1	A (T ≥ 8° C.)
CS(=O)(=O)c1c(Oc2ccc(F)c(-c3nc4c([nH]3)C(c3cccc(CCC(=O)O)c3F)NCCC4)c2)c(F)cc2[nH]ccc12 (stereo not drawn)	NBD1	A (T ≥ 8° C.)

====

- System: NBD1
- assay.details: Aggregation analysis using differential static light scattering (DSLS), thermal stability of NBD1
- Assay type: binding, Human
- recorded.conditions: 100 μM compound; ΔTagg = Tagg minus average Tagg of DMSO control wells; NBD1 0.2 mg/ml
value.type: DSLS NBD1/3D Human Stability delta-T (° C.) @ 100 (μM)

molecule	observed.result
CC(Cc1cccc(C2c3nc(-c4cc(Oc5c(F)cc6[nH]ccc6c5S(C)(=O)=O)ccc4F)[nH]c3CCN2C)c1F)C(=O)O (stereo not drawn)	A (T ≥ 8° C.)
CN1CCc2[nH]c(-c3cc(Oc4c(F)cc5[nH]ccc5c4F)ccc3F)nc2C1c1cccc(CC(O)CO)c1F (stereo not drawn)	B (4-8° C.)
O=C(O)Cc1cccc(C2OCCc3cn(-c4cc(Oc5c(F)cc6[nH]ccc6c5F)ccc4F)nc32)c1F (stereo not drawn)	B (4-8° C.)
CN1CCc2[nH]c(-c3cc(Oc4c(F)cc5[nH]ccc5c4S(C)(=O)=O)ccc3F)nc2C1c1ccc(CCC(=O)O)s1 (stereo not drawn)	A (T ≥ 8° C.)

Please examine the following record next.
Given item CN1CCc2nc(-c3cc(Oc4c(F)cc5[nH]ccc5c4F)ccc3F)[nH]c2[C@@H]1c1cccc(CCC(=O)O)c1F (single isomer, unassigned) , the value recorded as its DSLS NBD1/3D Human Stability delta-T (° C.) @ 100 (μM) is A (T ≥ 8° C.)
